Kindly state TGI for each of the entries shown.
- System: HOP-92 NSCLC
- experiment summary: NCI tumour cell line growth inhibition, 48 h

### Prompt TGI of c1ccc(OCc2nnc(CCCCCCCCc3nnc(COc4ccccc4)o3)o2)cc1 on HOP-92 NSCLC?
### Response > 100 µM

### Prompt # iterate: C[C@H]1CCC2C(OC(=O)[C@@H]2CN(C)C)[C@]2(C)C(=O)C=CC12O (some centres undefined)
### Response 8.03 µM

### Prompt # iterate: COC(=O)C(CNC(=O)/C=C/c1ccc(OC(C)=O)c(OC(C)=O)c1)NC(=O)/C=C/c1ccc(OC(C)=O)c(OC(C)=O)c1 (centres undefined)
### Response > 100 µM

### Prompt # iterate: COc1ccc(C2=Nc3c(nc(SC)[nH]c3=O)NC(c3ccccc3)C2)cc1 (centres undefined)
### Response > 100 µM

* * *

- System: HCT-15 colon
- experiment summary: NCI tumour cell line growth inhibition, 48 h
Kindly state TGI for each of the entries shown.

### Prompt Using the record for C[C@@H](C[C@H](CCO)c1ccccc1)c1ccc2ccccc2c1 , report its TGI.
### Response 2.91 µM

### Prompt # iterate: Cc1ccc(C)c(NC(=O)C(=O)Nn2c(=S)[nH]c3ccccc3c2=O)c1
### Response > 100 µM

### Prompt # iterate: Cc1oc2nc(N(C)C)n3cnnc3c2c1C
### Response > 100 µM

### Prompt # iterate: CCCCOc1ccc(S(=O)(=O)/N=C(\NO)Nc2ccc(Cl)cc2)cc1
### Response 30.4 µM

### Prompt # iterate: Cc1cc(S(=O)(=O)Nc2n[nH]c(Nc3ccccc3)n2)c(SSc2cc(Cl)c(C)cc2S(=O)(=O)Nc2n[nH]c(Nc3ccccc3)n2)cc1Cl
### Response > 100 µM

### Prompt # iterate: CC(=O)OC1=C(CC(C)(C)C)C(=O)c2ccccc2C1=O
### Response > 100 µM

### Prompt # iterate: COC(=O)C#CC(N)=O
### Response > 100 µM

### Prompt # iterate: NC1=Nc2ccccc2Sc2ccccc21
### Response > 100 µM

### Prompt # iterate: COc1ccc(F)cc1-c1ccnc2[nH]c(C3=CCN(C4CCC(CC(=O)O)CC4)CC3)cc12 (stereo not given)
### Response > 100 µM

### Prompt # iterate: Cc1ccc(S(=O)(=O)N/N=C\c2c3ccccc3[n+](C)c3ccccc23)cc1
### Response 97.4 µM

* * *

Kindly state TGI for each of the entries shown.
- Tested on: OVCAR-8 ovarian
- experiment summary: NCI tumour cell line growth inhibition, 48 h

### Prompt Using the record for COc1ccc2c(c1)[nH]c1c3ccc(OC)cc3oc(=O)c21 , report its TGI.
### Response > 100 µM

### Prompt # iterate: OCC(S)CS.[Bi] (configuration not stated)
### Response 52.3 µM

### Prompt # iterate: O=C(/C=C/c1ccc(Cl)cc1Cl)c1ccc(Cl)cc1Cl
### Response 39.6 µM

### Prompt # iterate: O=C(Cn1c(=O)oc2ccc(C(=O)c3cccc(Cl)c3)cc21)c1ccccc1
### Response > 100 µM

### Prompt # iterate: COc1ccc2c(c1)C=CC1C2CC[C@]2(C)C(NC(=O)/C=C/c3ccc(O)c(O)c3)CCC12 (some centres not stated)
### Response > 100 µM

### Prompt # iterate: Cn1c2ccccc2c2c3c(c4c5ccccc5n(C)c4c21)C(=O)N(c1ccccc1)C3=O
### Response > 100 µM

### Prompt # iterate: O=c1onc(Nc2ccccc2)n1-c1ccccc1
### Response > 100 µM

### Prompt # iterate: O=C(O)C1CSC2(CCCN(Cc3ccccc3)C2)N1 (configuration not stated)
### Response > 100 µM

### Prompt # iterate: Cn1c(-c2c(C3=CC(=O)N(c4ccccc4)C3=O)c3ccccc3n2C)cc2ccccc21
### Response > 100 µM

### Prompt # iterate: COc1cc([C@@H]2c3cc4c(cc3[C@@H](NCc3cccc(F)c3)C3COC(=O)[C@@H]32)OCO4)cc(OC)c1O (some centres not stated)
### Response 25.3 µM

### Prompt # iterate: Nc1ccn(C2CC3OCC3O2)c(=O)n1 (configuration not stated)
### Response > 100 µM

### Prompt # iterate: N#Cc1c(N2CCCC2)nsc1Nc1ccccc1
### Response > 100 µM

### Prompt # iterate: CC(=O)c1c(O)cc(O)c(-c2c(C)cc(O)c3c2C(=O)c2cccc(O)c2C3=O)c1O
### Response 49.5 µM

### Prompt # iterate: Cc1ccc(S(=O)(=O)N/N=C\c2c3ccccc3[n+](C)c3ccccc23)cc1
### Response > 100 µM

### Prompt # iterate: O=C1c2cc3ncsc3cc2C(=O)c2c(O)ccc(O)c21
### Response > 100 µM

### Prompt # iterate: CCSc1nc(N)c2cnn(CC)c2n1
### Response 19.4 µM

### Prompt # iterate: CCN1CCC(O)(/C=C/c2ccccc2)C(C(=O)/C=C/c2ccccc2)C1 (configuration not stated)
### Response 4.55 µM

### Prompt # iterate: Cc1c(Cl)cccc1NC(=O)C(=O)c1c(O)c2ccc(O)cc2oc1=O
### Response > 100 µM

### Prompt # iterate: Nc1ccc(C(=O)O)cc1
### Response > 100 µM

### Prompt # iterate: Cc1c(C2CCSc3ccccc3N2)sc2ccccc12 (configuration not stated)
### Response > 100 µM

### Prompt # iterate: CCOC(=O)C(=O)Nc1nc2ccc(C)cc2s1
### Response > 100 µM

### Prompt # iterate: COC(=O)C(CNC(=O)/C=C/c1ccc(OC(C)=O)c(OC(C)=O)c1)NC(=O)/C=C/c1ccc(OC(C)=O)c(OC(C)=O)c1 (configuration not stated)
### Response > 100 µM
